Cited source: patent US20190225692A1

Biological target: T1, HLA-A2/E7 (11-19) tetramer (human; HPV 16)
T1 construct: also called E7(11-19) peptide-MHC tetramer; E7 (11-19)-loaded tetramer
Test: tetramer flow cytometry; transfected 1:1 CD4+ and CD4+/CD8+ Jurkat-derived cells;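 note: cells transiently transfected with TCR plasmids, stained 48 h later with HLA-A*02:01 peptide-MHC tetramer plus anti-CD8 antibody, read by flow cytometry to assess CD8-independent tetramer binding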
% cells in E7 tet+/CD8- quadrant values for the binders below.

**Q:** Sample TCR 47 (codon optimized, cysteine modified version) (TCR, V domains shown) V domain 1: QKEVEQNSGPLSVPEGAIASLNCTYSDRGSQSFFWYRQYSGKSPELIMFIYSNGDKEDGRFTAQLNKASQYVSLLIRDSQPSDSATYLCAVNLLSGSARQLTFGSGTQLTVLP V domain 2: EPEVTQTPSHQVTQMGQEVILRCVPISNHLYFYWYRQILGQKVEFLVSFYNNEISEKSEIFDDQFSVERPDGSNFTLKIRSTKLEDSAMYFCAMTGRTTYEQYFGPGTRLTVTE — what was its % cells in E7 tet+/CD8- quadrant?
**A:** 0.71%

**Q:** Sample TCR 31 (codon optimized, cysteine modified version) (TCR, V domains shown) V domain 1: DQQVKQNSPSLSVQEGRISILNCDYTNSMFDYFLWYKKYPAEGPTFLISISSIKDKNEDGRFTVFLNKSAKHLSLHIVPSQPGDSAVYFCAASERGTYKYIFGTGTRLKVLA V domain 2: GAGVSQSPSNKVTEKGKDVELRCDPISGHTALYWYRQSLGQGLEFLIYFQGNSAPDKSGLPSDRFSAERTGGSVSTLTIQRTQQEDSAVYLCASSRFLGSTDTQYFGPGTRLTVLE — what was its % cells in E7 tet+/CD8- quadrant?
**A:** 0.042%

**Q:** Sample TCR 34 (codon optimized, cysteine modified version) (TCR, V domains shown) V domain 1: ELKVEQNPLFLSMQEGKNYTIYCNYSTTSDRLYWYRQDPGKSLESLFVLLSNGAVKQEGRLMASLDTKARLSTLHITAAVHDLSATYFCAVSGTYKYIFGTGTRLKVLA V domain 2: ETGVTQSPTHLIKTRGQQVTLRCSSQSGHNTVSWYQQALGQGPQFIFQYYREEENGRGNFPPRFSGLQFPNYSSELNVNALELDDSALYLCASSSYAGSYEQYFGPGTRLTVTE — what was its % cells in E7 tet+/CD8- quadrant?
**A:** 26%
